B1: TPR t1 (parent)
chain: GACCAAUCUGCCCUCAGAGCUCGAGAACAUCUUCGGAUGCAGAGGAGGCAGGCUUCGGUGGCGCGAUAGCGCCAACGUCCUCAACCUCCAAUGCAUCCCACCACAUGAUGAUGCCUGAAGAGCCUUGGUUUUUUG

variants of: B1; test: polymerase ribozyme fitness, log enrichment relative to wild type (log ratio); higher = more active; in vitro selection for triplet polymerase activity
Quantity: polymerase ribozyme fitness (log ratio)
Please reply with the value in numeric form only.

# Residue codes, polymerase ribozyme fitness (log ratio)
records = [
    ("GACCAAUCUGCCCUCAGAGCUCGAGAACAUCUUCGGAUGCAGAGGAGGCAGGCUUCGGUGGCGCGAUAGCGCCAACGCCCUCAACCUCCAAUGCAUCCCACCACAUGAUGAUGCCUGAAGAGCCUUGGUUUUUUG", -0.247),
    ("GACCAAUCUGCCCUCAGAGCUCGAGAACAUCUUCGGAUGCAGAGGAGGCAGGCUUCGGGGGCUCGAUAGCGCCAACGUCCUCAACCUCCAAUGCAUCCCACCACAUGAUGAUGCCUGAAGAGCCUUGGCUUUUUG", -2.43),
    ("GACCAACCUGCCCUCAGAGCUCGAGAACAUCUUCGGAUGCAUAGGAGGCAGGCUUCGGUCGCGCGAUAGCGCCAACGUCCUCAACCUCCAAUGCAUCCCACCACAUGAUGAUGCCUGAAAAGCGUUGAUUUUUUG", -3.07),
    ("GACCAAUCUGCCCUCAGAGCUCGAGAACAUCUUCGGAUGCAGACGAGGCAGGGUUCGGUGACGCGAUAGCGCCAACGUCCUCAACCUCCAAUGCAUCCCACCACAUGAUGAUGCCUGAAGAGCCUUGGUUUUUUG", -0.806),
    ("GACCAAUCUGCCCUCAGAGCUCGAGAACGUCUUCCGAUGCAGAGGAGGCAGGCUUCGGUGGCGCGAUAGCGCCAACGUCCUCAACCUCCAAUGCAUCGCACCACAUGAUGAUGCCUGAAGAGCCUUGGUUUUUUG", -3.4),
    ("GACCAAUCUGCCCUCAGAGCUCGAGAACAUCUUCGGAUGCAGAGGAGGCAGGCUUCGGUGGCGCGAUAGCGCCAACGUCAUCAACCUCCAAUACAUCCCACCACAUGAUGAUGCCUGAAGAGCAUUGAUUUUUUG", -5.36),
    ("GACCAAUCUGCCCUCAGAGCUCGAGAACAUCUUCGGAUGCAGAGCAGGCAGGCUUCGGUCGCGCGAUAGCGCCAACGUCCUCAACCUCCAAUGCAUCCCACCACAUGAUGAUGCCUGAAGAGCCUUGGAUUUUUG", -2.68),
    ("GACCAAUCUGCCCUGAGAGCUCGAGAACAUCUUCGGAUGCAGAGGAGGCAGGCUUCGGUGGCGCGAUAGCGCCAACGUCCUCAACCUCCAAUGCAUCCCACCACAUGAUGAUGCCUGAAGAGCUUUGGUUUUUUG", -0.148),
]

QUERY: May I ask what polymerase ribozyme fitness (log ratio) has been recorded for GACCAAUCUGCCCUCCGAGCUCGAGAACAUCUUCGGAUGCAGAGGAGGCAGGUUUCGGUGGCGCGAUAGCGCCAACGUCCUCAACGUCCAAUGCAUCCCACCACAUGAUGAUGCCUGAAGAGCCUUGGUUUUUUG ?
RESULT: -2.99

QUERY: Further, for GACCAAUCUGCCCUCAGAGCUCGAGAACAUCUUCGGAUGCAGAGGAGGCAGGCUUCGGAGGCGUGAUAGCGCCAACGUCCUGAACCUCCAAUGCAUCCCACCACAUGAUGAUGCCUGAAGAGCCUUGGUUUUUUG ?
RESULT: -0.95

QUERY: Another: GACCAGUCUGCCCUCAGAGCUCGAGAACAUCUUCGGAUGCAGAGGAGGCAGGCUUCGGUGGCGCGAUAGAGCCAACGUCCUCAACCUCCAAUGCAUCCCACCACAUGAUGAUGCCUGAAGAGCCUUGGUUUUUUG
RESULT: -2.41

QUERY: Next up: GACCUAUCUGCCCUCAGAGCUCGAGAACAUCUUCGGAUGCAGAGGUCGCGGGUUUCGGUGGCGCGAUAGCGCCAACGUCCUCAACAUCCAAUGCAUCCCACCACAUGAUGAUGCGUGAAGAGCCUUGGUUUUUUG
RESULT: -5.37

QUERY: What do you have for GACCAAUCUGCCCUCAGAGCUCGAGAACAUCUUCGGAUGCAGAGUAGGCAGGCUUGGGUGGCCCGAUAGCGCCAACGUCCUCAACCUCCAAUGCAUCCCAUCACAUGAUGAUGCCUGAAGAGCCUUGGUUUUUUG ?
RESULT: -5.92

QUERY: Also check GACCAAUCUGGCCUCAGAGCUCGAGAACAUCUUCGAAUGCAGAGGACGCAGGCUUCGGUGGCGCGAUAGCGCCAACGUCCUCAACCUCCAAUGCAUCCCACCACAUGAUGAUGCCUAAAGAGCCUUGGAUUUUUG
RESULT: -4.45

QUERY: Please give the result for GACCAAUCUGCCCUCCGAGCUCGAGAACAUCUUCGGAUGCAGAGGAGGCAGACUUCGGUGGCGCGAUAGUGCUAACGUCCUCAACCUCCAAUGCAUCCCACCACAUGAUGAUGCCUGAAGAGCCUUGGUUUUUUG too.
RESULT: -3.8

QUERY: Also GACCAAUCUGCCCUCAGAGCUCGAGAACAUCUUCGGAUGCAGAGGAGGCAGGCUUCGGUGGCGCGAUAGCGCCAACGUCCUCAAACUCCAAUGCAUCCCACCACAUGAUGAUGCCUGAAGAGCCUUGCUUUUUUG ?
RESULT: -4.07
